Measured values drawn from the supplement of paper PMC6555819 for this set.

- Test system: VDR:RXRa (NR concentration 270 nM, RXRa partner concentration 90 nM)
- experimental.details: PBM binding z-score (relative to random genomic background probes); higher = stronger binding; sequences stand for … in GC…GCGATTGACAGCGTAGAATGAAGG
Classes are defined on PBM binding z-score with ranges low bin (below 0.6), mid bin (0.6 to below 2), high bin (2 or more)

These recorded examples may help you get a feel for the data.
TCATATAGGTAAAGGTGAAAGTAGAACGATATGA :: mid bin
TGAATGAGGTTAATGATCAGGGAACGTGGCGTCG :: mid bin

Quick check: band for "TCGAGTAGGTTAGTCGGGGCATTCAGCCAACATA" high bin

Quick check: band for "GTACCAAGGTGAATAGGTCGTTGTTGAGTAGGCG" mid bin

Quick check: band for "TAGCCTAGGTCCTTGGGCCAGTATAGTACGCATC" low bin

Quick check: band for "AGAATGAGGTTAAGATCAGGGATACAGAATACAT" mid bin

Quick check: band for "CTCGAAAGGTTGTGCTCAGGTGAGTATACCAAAC" low bin

Quick check: band for "GGACCGAGGGCATTCGAGTTGATAGCATGGCGAT" high bin

====

- Test system: RARa:RXR (NR concentration 270 nM, RXRa partner concentration 90 nM)
- experimental.details: PBM binding z-score (relative to random genomic background probes); higher = stronger binding; sequences stand for … in GC…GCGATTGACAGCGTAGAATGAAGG
PBM binding z-score by entry:
Reply briefly: the number, and no unit.

ACTTACGGTTCAACGAGGTTATAGCACGCGTATA :: 3.55

What value of PBM binding z-score has been recorded for this entry: "ATATGTAGGTTATCGGGTCATTCTGTTTGCGCAT" 3.91

What value of PBM binding z-score has been recorded for this entry: "CGTCCAAGGTCAGCAGGTCGGTGAAAGCGACGTG" 3.58

What value of PBM binding z-score has been recorded for this entry: "GCTATTAGTTGAAATGGCAACCGAATGATTCTCG" -0.166

What value of PBM binding z-score has been recorded for this entry: "CCAACTGGGCCATCAGGTCATTGATATCAACGTT" 1.67

What value of PBM binding z-score has been recorded for this entry: "ACAGACAGGTGATGAATGTAACTCAGGCTATCAT" 0.181

What value of PBM binding z-score has been recorded for this entry: "TAGCTTAGGTCATTCAGGGGCCAGTATAGAAAGC" 4.06

What value of PBM binding z-score has been recorded for this entry: "ATCGAAAGGTCGTGAGGTGAGTATTCAGAAAGGC" 4.62

What value of PBM binding z-score has been recorded for this entry: "ATCTCTAGGCAACCAAGTTCAGTGAATGCCGAAC" 0.461

What value of PBM binding z-score has been recorded for this entry: "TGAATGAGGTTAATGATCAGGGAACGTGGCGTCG" 0.918

What value of PBM binding z-score has been recorded for this entry: "CCAGACAGGTCAGAAGGTAACTCAGCCTCGATTA" 2.1

What value of PBM binding z-score has been recorded for this entry: "GCATATAGGAAATACAAGGTGAAAGTCCGATTGT" 0.702

====

- Test system: PPARg DBDmut IVT, anti-PPARg (DBD mutation: PPARg1 K132A/R137A, NR concentration 270 nM)
- experimental.details: PBM binding z-score (relative to random genomic background probes); higher = stronger binding; sequences stand for … in GC…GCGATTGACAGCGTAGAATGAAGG
experimental.endpoint: PBM binding z-score
Reply briefly: the number, and no unit.

CCTTCTGGGCCAAAAAGGTCATTGATGCCGATAA :: -0.685
TGAATCAGGTTAAAGATCAGGGAACGTGGCGTCG :: 0.175
GCTGCTAGGTCAACTAATGGTCAGCTAAAGCTCG :: -0.784
TCTCCGAGGACACGAAAGGTCAGAGCTCGACATC :: 0.343
CGTCAAAGTTCAAGGAAACGTAACAGAAAGCAGC :: 1.1

Continue with the next sequence.
What value of PBM binding z-score has been recorded for this entry: "CCTAGCAGGCCAGGGTCGCTCAAGCATTTCGCTT" -2.27

====

- Tested on: RARg homodimer (NR concentration 270 nM)
- experimental.details: PBM binding z-score (relative to random genomic background probes); higher = stronger binding; sequences stand for … in GC…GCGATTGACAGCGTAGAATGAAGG
experimental.endpoint: PBM binding z-score
Reply briefly: the number, and no unit.

TTACCAATGTGAAGGTCGTTGATCCCTCTGTAGA :: 0.216
CGTCCAAGGTCAAAGGTCAGTGCAGAGATGACGG :: 8.11
CTTCCAAGGTCAGCAGGTCAGTGAAAGCGACGTG :: 6.94

What value of PBM binding z-score has been recorded for this entry: "ATATGTTGGTTAGCTGGGGTCATTCAGACTAGGC" 2.3

What value of PBM binding z-score has been recorded for this entry: "ATATGTAGGTTAGCTGGGGGCATTCAGACTAGGC" 2.43

What value of PBM binding z-score has been recorded for this entry: "CTCGAAAGGTCGTGTTCAGGTGAGTATACCAAAC" 3.44

What value of PBM binding z-score has been recorded for this entry: "TCATATAGCTAATACAGGTGAAAGTCGGCATCTA" 0.338

What value of PBM binding z-score has been recorded for this entry: "CCTACTGGGCCATTCACAGGTCATTGATCATATG" 1.66

What value of PBM binding z-score has been recorded for this entry: "GCGACTGGGGCATCAGCAGGTTGCCATAACTTAA" -0.244

What value of PBM binding z-score has been recorded for this entry: "CCTTACGGGTCCCGAGGTTATAGCACGACGAGCG" 0.388

What value of PBM binding z-score has been recorded for this entry: "AATACAGGGCCATCGTAGGCCAGAGTACGCACAG" 0.993

What value of PBM binding z-score has been recorded for this entry: "ATCTCTAGGTAAAAGTTCAATGAATCCCGAGGAT" 2.41

What value of PBM binding z-score has been recorded for this entry: "TCTTGTAGATCAGCAGGTTAAGATAGCTGGCCAA" -0.135

What value of PBM binding z-score has been recorded for this entry: "TCGAGTAGGTTAGTCGGGTCATTCAGCCAACATA" 1.5

What value of PBM binding z-score has been recorded for this entry: "TCGAGTAGGTTAGGGGCATTCACAATGGCGTCGA" 0.502

====

- System: PPARg:RXRa 90nM:30nM, anti-RXR (NR concentration 90 nM, RXRa partner concentration 30 nM)
- experimental.details: PBM binding z-score (relative to random genomic background probes); higher = stronger binding; sequences stand for … in GC…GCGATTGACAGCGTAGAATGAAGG
Classes are defined on PBM binding z-score with ranges low end = under 2, middle = from 2 up to 4, high end = 4 and over

ATATATAGGTTAGCTGGGGTCATTCAGACTAGGC :: high end

Continue with the sequence presented below.
Quick check: band for "CCGAGTAGGTTATGGGGTATTCAGGCAACGGTGA" middle

====

PBM binding z-score by entry:
- Tested on: FXR:RXRa (NR concentration 270 nM, RXRa partner concentration 90 nM)
- experimental.details: PBM binding z-score (relative to random genomic background probes); higher = stronger binding; sequences stand for … in GC…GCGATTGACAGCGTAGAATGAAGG
Reply briefly: the number, and no unit.

CGAACTAGGTCTTCCAGGACAGTGAATACATTGA :: 0.011
CAAACTAGGTCAAAGGGCAAAGTCGAGCCAACCA :: 6.12

What value of PBM binding z-score has been recorded for this entry: "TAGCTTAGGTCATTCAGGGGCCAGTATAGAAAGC" 4.82

What value of PBM binding z-score has been recorded for this entry: "GCGACTGGGGCGTCAGCAGGTTACCATAACTTAA" -0.381

What value of PBM binding z-score has been recorded for this entry: "GCTGCTAGGACAACTGATGGTCAGCTAAAGCTCG" -0.547

What value of PBM binding z-score has been recorded for this entry: "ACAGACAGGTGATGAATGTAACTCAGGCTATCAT" -0.237

What value of PBM binding z-score has been recorded for this entry: "TCTTGTAGATCAAGAGGAGGTTAAGAAAGATCGA" 0.338

====

- System: RXRa homodimer (NR concentration 180 nM)
- experimental.details: PBM binding z-score (relative to random genomic background probes); higher = stronger binding; sequences stand for … in GC…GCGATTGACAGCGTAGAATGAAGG
PBM binding z-score by entry:
Reply briefly: the number, and no unit.

CCTGCTAGGTCATGGTCTGCTAATCTACAGTATG :: 2.66
CCTAGTTGGACAGGAGGTCACACACCGGATATGA :: 3.96
GCATATAGGTAATACAAGGTGAAACTCCGATTGT :: 1.06

What value of PBM binding z-score has been recorded for this entry: "AGAACGAGGGCAATGAGTCGATAGCACGGGTGGC" 0.683

What value of PBM binding z-score has been recorded for this entry: "TCTTGTAGATCCAAGGTTAAGAAAGCCGAAGCCT" 1.13
